Listing of recorded SPOT intensity by entry.
Biological target: T1, Lsb1, P53281
T1 sequence (P53281 45-122, looked up): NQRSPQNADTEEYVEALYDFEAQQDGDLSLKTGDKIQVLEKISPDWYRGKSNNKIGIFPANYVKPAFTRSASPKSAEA
Assay: SPOT array
Conditions: median of control spots 388
reported_endpoint: SPOT intensity

# binder, result
records = [
    ("SSSSTPPTLPPRRIE", 1360),
    ("RLSRLLLSLPPESFT", 6),
    ("TIRRRAPLSLLESHT", 29),
    ("NVLRKILEIPLHSFS", 0),
]

These measurements were taken from paper PMC2756588.
